ASSAY SYSTEM: Tyrosine-protein phosphatase non-receptor type 1 (Homo sapiens, UniProt P18031)
Sequence (P18031 whole entry): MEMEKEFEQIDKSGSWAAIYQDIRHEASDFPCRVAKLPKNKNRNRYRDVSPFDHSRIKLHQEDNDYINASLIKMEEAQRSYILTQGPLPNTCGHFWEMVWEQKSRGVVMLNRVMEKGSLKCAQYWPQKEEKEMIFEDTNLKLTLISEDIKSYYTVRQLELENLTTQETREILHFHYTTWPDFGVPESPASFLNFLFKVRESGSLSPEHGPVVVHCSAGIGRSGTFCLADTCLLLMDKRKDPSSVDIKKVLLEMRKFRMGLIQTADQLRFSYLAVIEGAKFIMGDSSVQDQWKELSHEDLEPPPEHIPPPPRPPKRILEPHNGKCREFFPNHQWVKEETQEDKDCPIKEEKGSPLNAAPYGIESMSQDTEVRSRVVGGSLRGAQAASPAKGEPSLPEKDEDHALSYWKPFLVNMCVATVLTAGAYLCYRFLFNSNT
ASSAY: Inhibition of GST-tagged PTP1B (unknown origin) by plate reader analysis using DiFMUP as substrate
MEASUREMENT TYPE: IC50 (µM)

a = O=C(CCCCn1cc(CN(CC(=O)N(Cc2ccc(C3CCCCC3)cc2)c2ccc(C(=O)O)c(O)c2)S(=O)(=O)c2cccc3cccnc23)nn1)Nc1ccc(C(=O)O)c(O)c1
b = O=C(Cn1cc(CN(CC(=O)N(Cc2ccc(C3CCCCC3)cc2)c2ccc(C(=O)O)c(O)c2)S(=O)(=O)c2cccc3cccnc23)nn1)Nc1ccc(C(=O)O)c(O)c1
c = O=C(CCn1cc(CN(CC(=O)N(Cc2ccc(C3CCCCC3)cc2)c2ccc(C(=O)O)c(O)c2)S(=O)(=O)c2cccc3cccnc23)nn1)Nc1ccc(C(=O)O)c(O)c1
Query :: Arrange items by their IC50 values in increasing order. # format: label list in the order the request specifies
Result :: a, b, c
